Molecular target: Amine oxidase [flavin-containing] A (Homo sapiens)
Sequence (P21397 whole entry): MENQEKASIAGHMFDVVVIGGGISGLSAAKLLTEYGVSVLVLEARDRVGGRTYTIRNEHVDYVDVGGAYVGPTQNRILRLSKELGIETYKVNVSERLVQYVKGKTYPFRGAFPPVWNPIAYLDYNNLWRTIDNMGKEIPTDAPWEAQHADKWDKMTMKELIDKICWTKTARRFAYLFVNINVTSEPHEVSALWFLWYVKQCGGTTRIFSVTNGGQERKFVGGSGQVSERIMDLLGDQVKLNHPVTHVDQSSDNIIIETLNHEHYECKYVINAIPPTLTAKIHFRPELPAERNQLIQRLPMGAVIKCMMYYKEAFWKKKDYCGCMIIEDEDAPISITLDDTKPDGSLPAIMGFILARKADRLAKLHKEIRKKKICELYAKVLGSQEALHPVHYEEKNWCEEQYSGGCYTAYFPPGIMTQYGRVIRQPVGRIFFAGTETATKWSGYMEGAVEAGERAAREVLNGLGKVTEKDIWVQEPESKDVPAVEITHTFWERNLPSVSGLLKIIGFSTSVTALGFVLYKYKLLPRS
Experiment: Inhibition of human recombinant MAO-A using kynuramine as substrate preincubated for 30 mins followed by substrate addition by discontinuous fluorimetric analysis
MEASUREMENT TYPE: IC50

Quickly give me recorded IC50 for C#CCNC1CCc2cc(OCCCN3CCCCC3)ccc21 (stereo unspecified) > 100 µM

###

Reported IC50 values for a set of molecules
target: Amine oxidase [flavin-containing] A (Homo sapiens, UniProt P21397); assay: Inhibition of human recombinant MAO-A using kynuramine as substrate preincubated for 60 mins followed by substrate addition by discontinuous fluorimetric analysis

C#CCNC1CCc2cc(OCCCN3CCCCC3)ccc21 (configuration not stated)    > 10 µM

Give recorded IC50. C#CCNC1CCc2ccc(OCCCN3CCCCC3)cc21 (configuration not stated) > 50 µM

###

experiment: Cytotoxicity against human SH-SY5Y cells assessed as cell viability at 10 uM measured after 24 hrs by resazurin dye based fluorescence assay relative to control; settings: read-out: Activity
The following compounds are shown together with reported viability at 24 h, 10 µM values.
Answer in %, number only, no unit symbol.

C#CCNC1CCc2cc(OCCCN3CCCCC3)ccc21 (configuration not stated)    95.6

Okay, now this compound:
Give the reported viability at 24 h, 10 µM for this compound. C#CCNC1CCc2ccc(OCCCN3CCCCC3)cc21 (configuration not stated) 100

###

experiment: Cytotoxicity against human SH-SY5Y cells assessed as cell viability at 1 uM measured after 24 hrs by resazurin dye based fluorescence assay relative to control; settings: read-out: Activity
MEASUREMENT TYPE: viability at 24 h, 1 µM (%)
The answer is to be given in %; state only the numeric part.

C#CCNC1CCc2cc(OCCCN3CCCCC3)ccc21 (configuration not stated)    89.7

For the molecule C#CCNC1CCc2ccc(OCCCN3CCCCC3)cc21 (configuration not stated) , give its measured viability at 24 h, 1 µM value. 84

###

test: Cytotoxicity against human SH-SY5Y cells assessed as cell viability at 1 mM and measured after 24 hrs by resazurin dye based fluorescence assay relative to control; conditions: read-out: Activity
MEASUREMENT TYPE: viability at 24 h, 1000 µM (%)
Answer with a number only, understood to be in %.

Give viability at 24 h, 1000 µM for C[n+]1ccc(-c2ccccc2)cc1 1.8

###

molecular target: UniProt P35462
Sequence (P35462 whole entry): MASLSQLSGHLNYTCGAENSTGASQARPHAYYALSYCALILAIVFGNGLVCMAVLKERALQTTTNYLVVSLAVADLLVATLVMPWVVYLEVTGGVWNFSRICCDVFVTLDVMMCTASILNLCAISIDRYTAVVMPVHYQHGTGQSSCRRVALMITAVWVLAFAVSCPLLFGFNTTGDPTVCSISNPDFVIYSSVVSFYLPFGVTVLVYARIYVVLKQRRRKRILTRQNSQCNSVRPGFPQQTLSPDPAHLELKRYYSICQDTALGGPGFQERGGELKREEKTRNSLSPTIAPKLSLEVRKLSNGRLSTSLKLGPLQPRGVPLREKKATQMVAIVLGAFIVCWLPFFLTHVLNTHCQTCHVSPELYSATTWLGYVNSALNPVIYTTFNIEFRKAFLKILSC
pKi: −log10 of the molar value.
MEASUREMENT TYPE: pKi

Give recorded pKi. C#CCNC1CCc2cc(OCCCN3CCCCC3)ccc21 (stereo unspecified) < 5.00

###

target: Amine oxidase [flavin-containing] B (Rattus norvegicus, UniProt P19643)
Sequence (P19643 whole entry): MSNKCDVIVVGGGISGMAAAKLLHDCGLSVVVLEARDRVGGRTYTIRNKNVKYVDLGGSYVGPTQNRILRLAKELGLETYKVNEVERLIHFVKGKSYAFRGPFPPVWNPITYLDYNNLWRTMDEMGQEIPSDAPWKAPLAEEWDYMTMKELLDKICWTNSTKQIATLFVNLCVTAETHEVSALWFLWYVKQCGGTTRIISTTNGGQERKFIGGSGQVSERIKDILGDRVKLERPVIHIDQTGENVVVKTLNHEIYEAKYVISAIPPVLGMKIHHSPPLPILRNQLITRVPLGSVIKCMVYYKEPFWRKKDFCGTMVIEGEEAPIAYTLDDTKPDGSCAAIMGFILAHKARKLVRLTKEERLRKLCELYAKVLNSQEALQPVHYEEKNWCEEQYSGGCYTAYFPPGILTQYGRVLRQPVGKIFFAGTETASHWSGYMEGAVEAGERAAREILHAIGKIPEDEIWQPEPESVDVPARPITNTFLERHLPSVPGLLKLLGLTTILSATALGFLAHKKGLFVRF
pIC50: −log10 of the molar value.
MEASUREMENT TYPE: pIC50

Tell me measured pIC50 for C#CCN[C@@H]1CCc2ccc(OC(=O)N(C)CC)cc21 please. < 3.00

###

target: Amine oxidase [flavin-containing] B (Homo sapiens, UniProt P27338); assay: Inhibition of human recombinant MAO-B using kynuramine as substrate preincubated for 30 mins followed by substrate addition by discontinuous fluorimetric analysis
Sequence (P27338 whole entry): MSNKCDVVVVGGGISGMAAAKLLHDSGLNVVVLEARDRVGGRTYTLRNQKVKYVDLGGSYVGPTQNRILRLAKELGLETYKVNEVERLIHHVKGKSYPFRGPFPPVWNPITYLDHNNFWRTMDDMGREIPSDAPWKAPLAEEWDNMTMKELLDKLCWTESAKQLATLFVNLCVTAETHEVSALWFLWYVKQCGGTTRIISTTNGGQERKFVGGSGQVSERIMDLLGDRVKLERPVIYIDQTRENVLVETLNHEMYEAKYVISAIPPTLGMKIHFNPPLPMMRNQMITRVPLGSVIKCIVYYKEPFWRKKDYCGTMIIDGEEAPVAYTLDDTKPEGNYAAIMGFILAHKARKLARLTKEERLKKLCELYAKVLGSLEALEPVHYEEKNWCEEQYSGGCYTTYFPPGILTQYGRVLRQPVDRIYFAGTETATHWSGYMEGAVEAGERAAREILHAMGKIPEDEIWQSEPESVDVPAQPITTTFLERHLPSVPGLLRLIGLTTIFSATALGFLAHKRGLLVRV
MEASUREMENT TYPE: pIC50
To interpret pIC50, take it as minus log10 of a concentration measured in moles per litre.

For the compound C#CCNC1CCc2cc(OCCCN3CCCCC3)ccc21 (stereo unspecified) , give its reported pIC50. 5.98

###

biological target: UniProt Q9H3N8
Sequence (Q9H3N8 whole entry): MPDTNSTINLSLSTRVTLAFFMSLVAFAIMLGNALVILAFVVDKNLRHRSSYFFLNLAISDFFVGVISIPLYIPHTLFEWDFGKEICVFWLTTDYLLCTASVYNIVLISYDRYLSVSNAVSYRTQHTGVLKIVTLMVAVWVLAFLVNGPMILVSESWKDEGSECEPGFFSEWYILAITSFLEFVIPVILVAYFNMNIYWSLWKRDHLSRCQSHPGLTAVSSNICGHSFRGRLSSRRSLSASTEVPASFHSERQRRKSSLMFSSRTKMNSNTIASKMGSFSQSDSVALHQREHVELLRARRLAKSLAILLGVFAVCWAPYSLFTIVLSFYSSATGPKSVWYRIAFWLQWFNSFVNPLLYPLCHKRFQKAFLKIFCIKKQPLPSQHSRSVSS
MEASUREMENT TYPE: Ki

Supply Ki measured with UniProt Q9H3N8 for C#CCNC1CCc2cc(OCCCN3CCCCC3)ccc21 (stereo unspecified) . > 100 µM

###

target: Histamine H3 receptor (Homo sapiens, UniProt Q9Y5N1); assay: Displacement of [3H] N-alpha methylhistamine from human recombinant H3 receptor expressed in HEK293 cells incubated for 90 min; format: cell-based; details: read-out: Ki
Sequence (Q9Y5N1 whole entry): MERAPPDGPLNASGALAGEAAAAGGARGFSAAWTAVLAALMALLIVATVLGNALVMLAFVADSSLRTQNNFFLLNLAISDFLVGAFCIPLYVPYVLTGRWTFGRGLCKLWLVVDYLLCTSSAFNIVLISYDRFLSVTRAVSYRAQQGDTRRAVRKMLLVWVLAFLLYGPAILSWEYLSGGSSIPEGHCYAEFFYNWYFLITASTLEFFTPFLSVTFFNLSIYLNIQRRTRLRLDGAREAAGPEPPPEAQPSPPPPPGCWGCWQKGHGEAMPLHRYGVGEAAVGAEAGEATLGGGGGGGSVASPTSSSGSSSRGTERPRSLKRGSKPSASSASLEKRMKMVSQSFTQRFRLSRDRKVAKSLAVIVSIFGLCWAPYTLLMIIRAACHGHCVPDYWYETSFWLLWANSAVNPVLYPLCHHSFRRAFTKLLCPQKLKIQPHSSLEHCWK
MEASUREMENT TYPE: pKi
When answering, recall that pKi equals minus log10 of the concentration in mol/L, and write that number alone.

C#CCNC1CCc2ccc(OCCCN3CCCCC3)cc21 (configuration not stated)    8.17

Below: the item to evaluate.
Supply pKi value. Item: C#CCNC1CCc2cc(OCCCN3CCCCC3)ccc21 (configuration not stated) 8.59

###

target: Histamine H1 receptor (Homo sapiens); assay: Displacement of [3H] pyrilamine from human H1 histamine receptor
Sequence (P35367 whole entry): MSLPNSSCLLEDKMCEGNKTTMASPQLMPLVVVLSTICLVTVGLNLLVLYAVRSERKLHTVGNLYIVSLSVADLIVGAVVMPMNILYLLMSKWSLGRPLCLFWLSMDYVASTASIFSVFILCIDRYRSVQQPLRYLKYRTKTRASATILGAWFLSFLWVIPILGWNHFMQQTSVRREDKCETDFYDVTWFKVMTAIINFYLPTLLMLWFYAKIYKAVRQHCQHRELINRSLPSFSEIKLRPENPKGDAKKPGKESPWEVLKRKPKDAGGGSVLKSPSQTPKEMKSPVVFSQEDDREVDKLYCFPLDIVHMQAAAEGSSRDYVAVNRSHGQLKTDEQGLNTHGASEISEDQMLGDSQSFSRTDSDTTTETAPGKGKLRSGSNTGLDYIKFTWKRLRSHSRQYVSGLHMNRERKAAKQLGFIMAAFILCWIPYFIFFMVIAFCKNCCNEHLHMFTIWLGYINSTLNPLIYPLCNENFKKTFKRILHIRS
MEASUREMENT TYPE: Ki

Given C#CCNC1CCc2cc(OCCCN3CCCCC3)ccc21 (stereo unspecified) , respond with its Ki. > 10 µM

###

IC50 reference
biological target: UniProt P21397; assay: Inhibition of human recombinant MAO-A using kynuramine as substrate by discontinuous fluorimetric analysis

Look up and state reported IC50 for C#CCNC1CCc2ccc(OCCCN3CCCCC3)cc21 (configuration not stated) > 100 µM

Provide IC50 value for the following compound: C#CCNC1CCc2cc(OCCCN3CCCCC3)ccc21 (configuration not stated) > 100 µM

###

# maps each entry to its IC50
molecular target: Amine oxidase [flavin-containing] B (Homo sapiens); test: Inhibition of human recombinant MAO-B using kynuramine as substrate by discontinuous fluorimetric analysis
Number in µM, nothing else.

C#CCNC1CCc2ccc(OCCCN3CCCCC3)cc21 (configuration not stated)    7.92

Identify measured IC50 associated with C#CCNC1CCc2cc(OCCCN3CCCCC3)ccc21 (configuration not stated) 0.991

Values compiled from ChEMBL document CHEMBL4396932.
